Reference source for all entries: paper PMC12066977

Listing of entries alongside the reported IC50.
Tested on: E. coli ATCC 25922
Experiment: Broth microdilution antimicrobial assay (MIC, IC50)
Format: cell-based
Conditions: Escherichia coli, ATCC25922, 50% growth inhibition, 24 h, read-out: IC50 [95% confidence interval] Escherichia coli
# do not omit the unit; it follows the number

Use these answered entries as a reference point.
| compound | IC50 |
| --- | --- |
| C#CCOc1ccc(C(=O)/C=C/c2ccc[n+](CCCCCCCCCCCC)c2)c(OCC#C)c1.[Br-] | 5.88 µM |
| C#CCOc1ccc(C(=O)/C=C/c2ccc[n+](CCCCCCCC)c2)c(OCC#C)c1 | 11 µM |
| C#CCOc1ccc(C(=O)/C=C/c2ccc[n+](CCCCCCCCCC)c2)c(OCC#C)c1.[Br-] | 4.48 µM |

# get_value(readout='IC50', item= CNC(C)C1CCC(N)C(OC2C(N)CC(N)C(OC3OCC(C)(O)C(NC)C3O)C2O)O1 (stereo not drawn) [GEN, gentamicin, reference compound] )
6.11 µM

Please report the recorded IC50 for "C#CCOc1ccc(C(=O)/C=C/c2ccc[n+](CCCCCC[n+]3cccc(/C=C/C(=O)c4ccc(OCC#C)cc4OCC#C)c3)c2)c(OCC#C)c1" .
46 µM

Please give the measured IC50 for this compound: "C#CCOc1ccc(C(=O)/C=C/c2ccc[n+](CCCCCCCCCCCCCC)c2)c(OCC#C)c1.[Br-]"
36.3 µM

====

Tested on: S. aureus ATCC 25923
Experiment: Broth microdilution antimicrobial assay (MIC, IC50)
Type: cell-based
Conditions: Staphylococcus aureus, ATCC25923, 50% growth inhibition, 24 h, read-out: IC50 [95% confidence interval] Staphylococcus aureus
metric: IC50 (µM)
Answer format: numeric, µM implied, no suffix.

Bench note: what IC50 did "C#CCOc1ccc(C(=O)/C=C/c2ccc[n+](CCCCCCCCCCCCCC)c2)c(OCC#C)c1.[Br-]" show?
1.3

Request the reported IC50 associated with "C#CCOc1ccc(C(=O)/C=C/c2ccc[n+](CCCCCCCC)c2)c(OCC#C)c1"
2.65

====

Test system: S. aureus ATCC 25923
Experiment: Broth microdilution antimicrobial assay (MIC, IC50)
Assay type: cell-based
Conditions: Staphylococcus aureus, ATCC25923, 50% growth inhibition, 24 h, read-out: IC50 [95% confidence interval] Staphylococcus aureus
metric: pIC50
// returns pIC50 (minus log10 of molar concentration), number only

Consider the worked cases shown below.
| compound | metric | quantitative_result |
| --- | --- | --- |
| C#CCOc1ccc(C(=O)/C=C/c2ccc[n+](CCCCCC[n+]3cccc(/C=C/C(=O)c4ccc(OCC#C)cc4OCC#C)c3)c2)c(OCC#C)c1 [Compound 10] | pIC50 | 4.23 |
| CNC(C)C1CCC(N)C(OC2C(N)CC(N)C(OC3OCC(C)(O)C(NC)C3O)C2O)O1 (centres unmarked) [GEN, gentamicin, reference compound] | pIC50 | 5.40 |
| C#CCOc1ccc(C(=O)/C=C/c2ccc[n+](CCCCCC)c2)c(OCC#C)c1.[Br-] [Compound 2] | pIC50 | 4.46 |
| C#CCOc1ccc(C(=O)/C=C/c2ccc[n+](CCCCCCCCCCCCCCCC)c2)c(OCC#C)c1 [Compound 7] | pIC50 | 5.38 |
| C#CCOc1ccc(C(=O)/C=C/c2ccc[n+](CCCCCCCCCC)c2)c(OCC#C)c1.[Br-] [Compound 4] | pIC50 | 6.08 |
| C#CCOc1ccc(C(=O)/C=C/c2ccc[n+](CCCCCCCCCCCC)c2)c(OCC#C)c1.[Br-] [Compound 5] | pIC50 | 5.79 |

Record request: pIC50 value, item C#CCOc1ccc(C(=O)/C=C/c2ccc[n+](CCCCCCCCCCCCCCCCCC)c2)c(OCC#C)c1 [Compound 8]
4.85

Could you tell me which pIC50 is on file for C#CCOc1ccc(C(=O)/C=C/c2cccnc2)c(OCC#C)c1 [Compound 1] ?
4.32
